Each item that follows carries a reported DGI-2 (OD).
Target: T1, DGI-2 polypeptide (UniProt Q15004 1-111, limits assumed)
T1 construct: Soluble recombinant protein coated at 500 ng/well; vector tag of pIVEX2.3-MCS not described for this construct; also called KIAA0101
T1 sequence (looked up): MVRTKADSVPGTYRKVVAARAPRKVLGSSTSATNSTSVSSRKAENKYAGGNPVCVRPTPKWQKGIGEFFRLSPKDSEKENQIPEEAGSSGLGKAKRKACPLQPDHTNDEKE
Test: phage ELISA
Give your result in OD as a bare value.

Here is how some binders turned out for DGI-2 (OD).
| BINDER | NUMERIC READOUT |
| --- | --- |
| RDHRYVGWGRATFRHDQSVWAAAGAPVPYPDPLEPRP [DGI-2-20F-PP-H1] | 1.7 |
| SRPGWCSRGTAWGFPGCSSSAAAGAPVPYPDPLEPRP [DGI-2-20R-3-C4] | 4.5 |
| DGI-2-40F-3-D1044 (peptide) peptide: DRVARLATPTAGTMAAGSLGYERTVGCDSQDWFRCVVEGLAAAGAPVPYPDPLEPRP | 7.9 |
| VGHLLSRCAHHSPGMGASPYGAAAGAPVPYPDPLEPRP [DGI-2-20F-PP-B11] | 2.6 |
| DGI-2-40F-4-F97 (peptide) peptide: QVGGMTQVGATVLSVVTGRGSCDGEDAWYPPGVTVGLGLCAAAGAPVPYPDPLEPRP | 6.7 |

Returns the measured DGI-2 (OD) for the input binder. Input: GITGLFCLCLRSSQSIAAAGAPVPYPDPLEPRP [DGI-2-20F-P0P-D6]
3.3

Which DGI-2 (OD) is listed for DQRVVGSGWFERLRNWYDRAAAAGAPVPYPDPLEPRP [DGI-2-20R-4-G99] ?
7.5

// DGI-2 (OD) lookup, key: RDTMCGSVSWGIPGCEYSGMAAAGAPVPYPDPLEPRP [DGI-2-20R-4-G122]
7.6

Data provenance: patent US7056679
